# assayed.system: human B1R receptor (CHO K1 cells stably transfected with the human B1R gene) (Homo sapiens, UniProt P46663)
# Construct: expressed in transfected cells; host or cells: CHO K1 cells (Chinese hamster ovary), stably transfected
# Sequence (P46663 whole entry): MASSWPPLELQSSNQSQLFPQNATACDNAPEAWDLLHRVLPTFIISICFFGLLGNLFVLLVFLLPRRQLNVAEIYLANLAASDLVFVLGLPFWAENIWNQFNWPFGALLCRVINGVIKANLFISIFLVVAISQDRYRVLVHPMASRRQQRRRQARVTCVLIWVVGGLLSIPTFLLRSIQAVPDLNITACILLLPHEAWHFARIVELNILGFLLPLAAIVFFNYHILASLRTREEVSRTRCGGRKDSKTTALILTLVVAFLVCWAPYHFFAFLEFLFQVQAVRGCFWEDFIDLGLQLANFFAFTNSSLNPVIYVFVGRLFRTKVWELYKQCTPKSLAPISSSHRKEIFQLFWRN
# procedure.text: Functional study on the bradykinin receptor 1 (B1R), Ca2+ fluorescence (Fluo-4) FLIPR/Novostar assay, hB1R cells
# Assay type: cell-based
# experimental.context: CHO-K1, read-out: % inhibition (human B1R) at 10 μM
assay.metric: inhibition at 10 µM

| smiles | recorded.result |
| --- | --- |
| CN(C(=O)c1ccc2c(c1)[C@H](NC(=O)c1ccccc1Cl)CC2)C1CCN(c2ccnc(N3CCCC3)c2)CC1 | 100% |
| CC(C)CC(=O)N[C@@H]1CCc2ccc(C(=O)N(C)C3CCN(c4ccncc4)CC3)cc21 | 100% |
| CN(C(=O)c1ccc2c(c1)OCC[C@H]2N1Cc2cccc(Cl)c2C1=O)C1CCN(c2ccncc2)CC1 | 98% |
| Cc1cc(N2CCC(N(C)C(=O)c3ccc4c(c3)[C@H](NC(=O)c3cc(C)on3)CC4)CC2)nc(C)n1 | 100% |
| CC(C)CN(C(=O)c1ccccc1Cl)[C@@H]1CCc2ccc(C(=O)N(C)C3CCN(c4ccncc4)CC3)cc21 | 100% |
| CN(C(=O)c1ccc2c(c1)[C@H](NC(=O)[C@H]1CCCc3ccccc31)CC2)C1CCN(c2ccncc2)CC1 | 100% |
| Cc1cc(N2CCC(N(C)C(=O)c3ccc4c(c3)[C@H](NC(=O)c3cc(C(F)(F)F)ccc3Cl)CC4)CC2)nc(C)n1 | 99% |
| CN1CCC(N2CCC(N(C)C(=O)c3ccc4c(c3)[C@H](NC(=O)c3ccccc3Cl)CC4)CC2)CC1 | 52% |
| CN(C(=O)c1ccc2c(c1)[C@H](NS(=O)(=O)c1ccccc1Cl)CC2)C1CCN(c2ccncc2)CC1 | 100% |
| CN(C(=O)c1ccc2c(c1)[C@H](NC(=O)c1ccccc1Cl)CC2)C1CCN(c2nccn2C)CC1 | 89% |
| CN(CCC1CCN(c2ccncc2)CC1)C(=O)c1ccc2c(c1)[C@H](NC(=O)c1ccccc1Cl)CC2 | 93% |
| Cc1cc(N2CCC(N(C)C(=O)c3ccc4c(c3)[C@H](NC(=O)c3c(F)cccc3Cl)CC4)CC2)nc(C)n1 | 99% |
| CN(C(=O)c1ccc2c(c1)[C@H](NC(=O)c1ccccc1Cl)CC2)C1CCN(c2ccc(F)cc2)CC1 | 31% |
| CC(C)N(C(=O)c1ccccc1Cl)[C@@H]1CCc2ccc(C(=O)N(C)C3CCN(c4ccncc4)CC3)cc21 | 89% |

----------
# assayed.system: B1R receptor of the rat (CHO K1 cells stably transfected with the B1R gene of the rat) (Rattus norvegicus)
# Construct: expressed in transfected cells; host or cells: CHO K1 cells (Chinese hamster ovary), stably transfected
# Sequence (P97583 whole entry): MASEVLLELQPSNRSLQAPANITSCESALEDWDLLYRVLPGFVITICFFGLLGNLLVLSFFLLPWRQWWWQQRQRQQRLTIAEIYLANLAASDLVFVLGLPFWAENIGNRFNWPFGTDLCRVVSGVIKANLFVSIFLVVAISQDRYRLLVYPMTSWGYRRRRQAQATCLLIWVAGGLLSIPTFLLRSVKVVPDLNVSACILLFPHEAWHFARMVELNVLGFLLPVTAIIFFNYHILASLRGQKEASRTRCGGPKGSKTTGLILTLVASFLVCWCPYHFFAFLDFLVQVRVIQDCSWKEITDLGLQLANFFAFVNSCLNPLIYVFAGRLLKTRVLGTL
# procedure.text: Functional study on the bradykinin receptor 1 (B1R), Ca2+ fluorescence (Fluo-4) FLIPR/Novostar assay, rB1R cells
# Assay type: cell-based
# experimental.context: CHO-K1, 10 μM, read-out: % Inhibition (r-B1R) at 10 μM

| molecule | inhibition at 10 µM, % |
| --- | --- |
| CN(C(=O)c1ccc2c(c1)C(NS(=O)(=O)c1c(Cl)cccc1C(F)(F)F)CCO2)C1CCN(c2ccncc2)CC1 (stereo not shown) | 104 |
| Cc1cc(N2CCC(N(C)C(=O)c3ccc4c(c3)C(NC(=O)Nc3c(Cl)cccc3Cl)CC4)CC2)cc(C)n1 (stereo not shown) | 107 |
| Cc1cc(N2CCC(N(C)C(=O)c3ccc4c(c3)C(NC(=O)c3cccc(C(F)(F)F)c3Cl)CC4)CC2)cc(C)n1 (stereo not shown) | 112 |
| CN(C(=O)c1ccc2c(c1)C(NC(=O)c1cc(C(F)(F)F)ccc1Cl)CCC2)C1CCN(c2ccncc2)CC1 (stereo not shown) | 112 |
| CN(C(=O)c1ccc2c(c1)C(NC(=O)c1cccc(Cl)c1Cl)CCC2)C1CCN(c2ccncc2)CC1 (stereo not shown) | 103 |
| CN(C(=O)c1ccc2c(c1)C(N(C)C(=O)C1CC1)CC2)C1CCN(c2ccncc2)CC1 (stereo not shown) | 108 |
| CN(C(=O)c1ccc2c(c1)C(N(C)C(=O)Nc1cccc(Cl)c1Cl)CC2)C1CCN(c2ccncc2)CC1 (stereo not shown) | 107 |
| CN(C(=O)NC1CCOc2ccc(C(=O)N(C)C3CCN(c4ccncc4)CC3)cc21)c1ccccc1Cl (stereo not shown) | 102 |
| Cc1cc(N2CCC(N(C)C(=O)c3ccc4c(c3)C(NC(=O)C3CC3)CC4)CC2)cc(C)n1 (stereo not shown) | 101 |
| CN(C(=O)c1ccc2c(c1)C(NC(=O)Nc1c(Cl)cccc1Cl)CC2(C)C)C1CCN(c2ccncc2)CC1 (stereo not shown) | 108 |
| CN(C(=O)c1ccc2c(c1)C(N(C)C(=O)c1cc(Cl)ccc1Cl)CC2)C1CCN(c2ccncc2)CC1 (stereo not shown) | 112 |
| Cc1cc(N2CCC(N(C)C(=O)c3ccc4c(c3)C(N(C)C(=O)c3c(Cl)cccc3C(F)(F)F)CC4)CC2)cc(C)n1 (stereo not shown) | 111 |
| Cc1cc(N2CCC(N(C)C(=O)c3ccc4c(c3)C(N(C)S(=O)(=O)Cc3cccc(C(F)(F)F)c3)CC4)CC2)cc(C)n1 (stereo not shown) | 96 |
| CC(C)CC(=O)N(C)C1CCc2ccc(C(=O)N(C)C3CCN(c4ccncc4)CC3)cc21 (stereo not shown) | 103 |
| CN(C(=O)c1ccc2c(c1)C(NC(=O)c1ccccc1Cl)CC2(C)C)C1CCN(c2ccncc2)CC1 (stereo not shown) | 104 |
| CN(C(=O)c1ccc2c(c1)C(NC(=O)C1CC1)CCC2)C1CCN(c2ccncc2)CC1 (stereo not shown) | 103 |

----------
# inhibition at 10 µM values compiled below
# assayed.system: B1R receptor of the rat (CHO K1 cells stably transfected with the B1R gene of the rat) (Rattus norvegicus)
# Construct: expressed in transfected cells; host or cells: CHO K1 cells (Chinese hamster ovary), stably transfected
# procedure.text: Functional study on the bradykinin receptor 1 (B1R), Ca2+ fluorescence (Fluo-4) FLIPR/Novostar assay, rB1R cells
# Type: cell-based
# experimental.context: CHO-K1, 10 μM, read-out: % Inhibition (r-B1R) at 10 μM

| molecule | value.unit | inhibition at 10 µM |
| --- | --- | --- |
| CN(C(=O)c1ccc2c(c1)C(NC(=O)CC(C)(C)C)CC2(C)C)C1CCN(c2ccncc2)CC1 (centres unmarked) | % | 112 |
| Cc1ccc(NC(=O)NC2CCCc3ccc(C(=O)N(C)C4CCN(c5ccncc5)CC4)cc32)c(C)c1 (centres unmarked) | % | 63 |
| COc1ccc(Cl)cc1NC(=O)NC1CCc2ccc(C(=O)N(C)C3CCN(c4cc(C)nc(C)c4)CC3)cc21 (centres unmarked) | % | 72 |
| CCCS(=O)(=O)NC1CCc2ccc(C(=O)N(C)C3CCN(c4ccc5cnccc5c4)CC3)cc21 (centres unmarked) | % | 101 |
| CC(C)CC(=O)NC1CCc2ccc(C(=O)N(C)C3CCN(c4ccncc4)CC3)cc21 (centres unmarked) | % | 104 |
| CCCC(=O)NC1CCc2ccc(C(=O)N(C)C3CCN(c4cc(C)nc(C)c4)CC3)cc21 (centres unmarked) | % | 106 |
| CN(C(=O)c1ccc2c(c1)C(NC(=O)C1CCCCC1)CCC2)C1CCN(c2ccncc2)CC1 (centres unmarked) | % | 103 |
| CN(C(=O)c1ccc2c(c1)C(NC(=O)CCC1CCCC1)CCO2)C1CCN(c2ccncc2)CC1 (centres unmarked) | % | 102 |
| CC(C)CC(=O)NC1CCCc2ccc(C(=O)N(C)C3CCN(c4ccncc4)CC3)cc21 (centres unmarked) | % | 109 |
| CC(C)CC(=O)NC1CC(C)(C)c2ccc(C(=O)N(C)C3CCN(c4ccncc4)CC3)cc21 (centres unmarked) | % | 105 |
| Cc1cc(N2CCC(N(C)C(=O)c3ccc4c(c3)C(NC(=O)c3cc(F)ccc3Cl)CC4)CC2)cc(C)n1 (centres unmarked) | % | 111 |

----------
// reported inhibition at 10 µM per item
# assayed.system: B1R receptor of the rat (CHO K1 cells stably transfected with the B1R gene of the rat) (Rattus norvegicus)
# Construct: expressed in transfected cells; host or cells: CHO K1 cells (Chinese hamster ovary), stably transfected
# procedure.text: Functional study on the bradykinin receptor 1 (B1R), Ca2+ fluorescence (Fluo-4) FLIPR/Novostar assay, rB1R cells
# Type: cell-based
# experimental.context: CHO-K1, 10 μM, read-out: % inhibition (rat B1R) at 10 μM
assay.metric: inhibition at 10 µM (%)

| smiles | assay.metric | recorded.result |
| --- | --- | --- |
| CN1CCN([C@@H]2CCC[C@H](N(C)C(=O)c3ccc4c(c3)[C@H](NC(=O)c3ccccc3Cl)CC4)C2)CC1 | inhibition at 10 µM | 72 |
| CN(C(=O)c1ccc2c(c1)[C@H](NS(=O)(=O)c1ccccc1)CC2)C1CCN(c2ccncc2)CC1 | inhibition at 10 µM | 104 |
| Cc1cc(N2CCC(N(C)C(=O)c3ccc4c(c3)[C@H](NC(=O)c3cc(C(F)(F)F)ccc3Cl)CC4)CC2)nc(C)n1 | inhibition at 10 µM | 109 |
| Cc1cc(N2CCC(N(C)C(=O)c3ccc4c(c3)[C@H](N(C(=O)c3ccccc3Cl)C(C)C)CC4)CC2)nc(C(C)C)n1 | inhibition at 10 µM | 55 |
